Biological target: Hormone-sensitive lipase (HSL) (Homo sapiens)
Construct: made in house
Assay: Assay 3190.1: percent inhibition of hormone sensitive lipase by compound at 10 μM (fluorochrome-labeled triacylglyceride substrate)
Type: biochemical
Details: 10 μM sample concentration; % activity relative to non-inhibited sample (no compound); 30 min pre-incubation at 25° C., 120 min at 37° C.; read-out: Test 3190.1 HSL_FL % ACTIVITY
PROPERTY: activity at 10 µM (%)
Report as a plain number; the unit % is understood.

Query :: # return recorded activity at 10 µM for input CN(C(=O)Oc1ccc(N2C(=O)CNC2=S)cn1)c1ccccc1
Result :: 9

Query :: Output activity at 10 µM of COc1ccccc1N(C)C(=O)Oc1ccc(N2C(=O)CC(C)(C)CC2=O)cn1
Result :: 6

Query :: Return the recorded activity at 10 µM value; entry: COc1cccc(C(=O)Nc2ccc(OC(=O)N(C)c3ccccc3)nc2)c1
Result :: 1

###

Molecular target: Hormone-sensitive lipase (HSL) (Homo sapiens, UniProt Q05469)
Construct: made in house
Assay: Assay 3190.1: percent inhibition of hormone sensitive lipase by compound at 10 μM (fluorochrome-labeled triacylglyceride substrate)
Format: biochemical
Conditions: 10 μM sample concentration; % activity relative to non-inhibited sample (no compound); 30 min pre-incubation at 25° C., 120 min at 37° C.; read-out: Test 3190.1 HSL_FL % ACTIVITY
I would appreciate it if you labelled entries y when activity at 10 µM is 3% or higher, otherwise n.

Query :: Reported activity at 10 µM at or above 3%? COc1ccc(N(C)C(=O)Oc2ccc(N3C(=O)CC(C)(C)CC3=O)cn2)cc1
Result :: n

Query :: Answer whether activity at 10 µM of CN(C(=O)Oc1ccc(N2C(=O)CC(C)(C)CC2=O)cn1)c1ccc(CCO)cc1 is greater than or equal to 3%.
Result :: y

Query :: Does CN(C(=O)Oc1ccc(NC(=O)c2ccc(-n3ccnc3)cc2)cn1)c1ccccc1 have a reported activity at 10 µM of at least 3%?
Result :: y

Query :: Item CCCCNC(=S)Nc1ccc(OC(=O)N(C)c2ccccc2)nc1 with activity at 10 µM of 3% or above?
Result :: n

Query :: // inclusive: activity at 10 µM at least 3%? input: CCN(CC)c1ccc(C(=O)Nc2ccc(OC(=O)N(C)c3ccccc3)nc2)cc1
Result :: y

Query :: Hi, just wondering whether CN(C(=O)Oc1ccc(CCN2C(=O)CC(C)(C)CC2=O)cn1)c1ccccc1 shows activity at 10 µM of 3% or higher.
Result :: n

Query :: Say whether CN(C(=O)Oc1ccc(N2C(=O)CC(C)(C)CC2=O)cn1)c1ccc(Br)cc1 shows activity at 10 µM of 3% or more.
Result :: n

Query :: In plain terms: is recorded activity at 10 µM at least 3% for CN(C(=O)Oc1ccc(NC(=O)NC(C)(C)C)cn1)c1ccccc1 ?
Result :: y

Query :: Test whether the molecule CN(C(=O)Oc1ccc(NC(=S)NCC(C)(C)C)cn1)c1ccccc1 records activity at 10 µM of 3% or higher.
Result :: n

Query :: Hi team, for CC1CCCCN1Cc1ccc(C(=O)Nc2ccc(OC(=O)N(C)c3ccccc3)nc2)cc1 (stereo not drawn) , is the recorded activity at 10 µM at or above 3%?
Result :: y

Query :: Determine whether measured activity at 10 µM meets or exceeds 3% for C[C@@H]1CN(Cc2ccc(C(=O)Nc3ccc(OC(=O)N(C)c4ccccc4)nc3)cc2)C[C@H](C)O1
Result :: y

Query :: In plain terms: is recorded activity at 10 µM at least 3% for CN(C(=O)Oc1ccc(NC(=O)c2cccc(C(F)(F)F)c2F)cn1)c1ccccc1 ?
Result :: n

Query :: For this molecule, is measured activity at 10 µM 3% or higher? CC1CCN(C(=S)Nc2ccc(OC(=O)N(C)c3ccccc3)nc2)CC1
Result :: n

Query :: Answer whether activity at 10 µM of CN(C(=O)Oc1ccc(NC(=O)c2ccc(CN3CCCC3)cc2)cn1)c1ccccc1 is greater than or equal to 3%.
Result :: y

Query :: Hi team, for CN(C(=O)Oc1ccc(NCC(=O)OC(C)(C)C)cn1)c1ccccc1 , is the recorded activity at 10 µM at or above 3%?
Result :: n

###

Target: Hormone-sensitive lipase (HSL) (Homo sapiens, UniProt Q05469)
Construct: made in house
Sequence (Q05469 1-775 isoform Q05469-2): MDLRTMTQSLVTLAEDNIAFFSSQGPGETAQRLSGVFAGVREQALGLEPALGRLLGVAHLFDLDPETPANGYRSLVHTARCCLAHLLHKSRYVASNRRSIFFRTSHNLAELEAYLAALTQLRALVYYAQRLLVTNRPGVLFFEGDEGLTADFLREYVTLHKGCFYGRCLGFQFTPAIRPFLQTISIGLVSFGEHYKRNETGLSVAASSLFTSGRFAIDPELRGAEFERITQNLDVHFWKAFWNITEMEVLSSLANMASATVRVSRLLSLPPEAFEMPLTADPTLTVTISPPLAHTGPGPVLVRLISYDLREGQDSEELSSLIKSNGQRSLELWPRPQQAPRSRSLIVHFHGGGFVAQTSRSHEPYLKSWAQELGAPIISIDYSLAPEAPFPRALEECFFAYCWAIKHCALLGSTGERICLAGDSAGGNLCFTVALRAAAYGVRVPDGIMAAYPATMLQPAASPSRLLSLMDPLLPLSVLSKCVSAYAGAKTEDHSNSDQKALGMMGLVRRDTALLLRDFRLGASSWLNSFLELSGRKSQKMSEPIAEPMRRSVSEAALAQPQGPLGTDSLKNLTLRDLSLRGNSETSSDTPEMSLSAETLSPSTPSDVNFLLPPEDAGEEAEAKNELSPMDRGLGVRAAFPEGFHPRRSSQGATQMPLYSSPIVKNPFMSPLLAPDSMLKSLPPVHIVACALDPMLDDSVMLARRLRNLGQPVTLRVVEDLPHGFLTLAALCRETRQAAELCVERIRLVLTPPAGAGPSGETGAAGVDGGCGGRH
Test: Assay 3190.1: percent inhibition of hormone sensitive lipase by compound at 10 μM (fluorochrome-labeled triacylglyceride substrate)
Format: biochemical
Conditions: 10 μM sample concentration; % activity relative to non-inhibited sample (no compound); 30 min pre-incubation at 25° C., 120 min at 37° C.; read-out: Test 3190.1 HSL_FL % ACTIVITY
PROPERTY: activity at 10 µM
Remember to follow the number with its unit.

Query :: Fill: activity at 10 µM (Hormone-sensitive lipase (HSL) (Homo sapiens, UniProt Q05469)) for this molecule CC1CCN(Cc2ccc(C(=O)Nc3ccc(OC(=O)N(C)c4ccccc4)nc3)cc2)CC1 [Example 41]
Result :: 3%

Query :: Give the observed activity at 10 µM of CN(C)c1cccc(C(=O)Nc2ccc(OC(=O)N(C)c3ccccc3)nc2)c1 [Example 31] for Hormone-sensitive lipase (HSL) (Homo sapiens, UniProt Q05469).
Result :: 3%

Query :: Report value: activity at 10 µM, system: Hormone-sensitive lipase (HSL) (Homo sapiens, UniProt Q05469), molecule: CCC1NC(=S)N(c2ccc(OC(=O)N(C)c3ccccc3)nc2)C1=O (stereo not drawn) [Example 8]
Result :: 3%
